target: Transient receptor potential cation channel subfamily V member 1 (Homo sapiens) (UniProt Q8NER1); assay: Antagonist activity at TRPV1 (unknown origin) expressed in HEK cells assessed as inhibition of capsaicin-induced calcium increase at 10 uM by fura-2-based assay; format: cell-based
Sequence (Q8NER1 whole entry): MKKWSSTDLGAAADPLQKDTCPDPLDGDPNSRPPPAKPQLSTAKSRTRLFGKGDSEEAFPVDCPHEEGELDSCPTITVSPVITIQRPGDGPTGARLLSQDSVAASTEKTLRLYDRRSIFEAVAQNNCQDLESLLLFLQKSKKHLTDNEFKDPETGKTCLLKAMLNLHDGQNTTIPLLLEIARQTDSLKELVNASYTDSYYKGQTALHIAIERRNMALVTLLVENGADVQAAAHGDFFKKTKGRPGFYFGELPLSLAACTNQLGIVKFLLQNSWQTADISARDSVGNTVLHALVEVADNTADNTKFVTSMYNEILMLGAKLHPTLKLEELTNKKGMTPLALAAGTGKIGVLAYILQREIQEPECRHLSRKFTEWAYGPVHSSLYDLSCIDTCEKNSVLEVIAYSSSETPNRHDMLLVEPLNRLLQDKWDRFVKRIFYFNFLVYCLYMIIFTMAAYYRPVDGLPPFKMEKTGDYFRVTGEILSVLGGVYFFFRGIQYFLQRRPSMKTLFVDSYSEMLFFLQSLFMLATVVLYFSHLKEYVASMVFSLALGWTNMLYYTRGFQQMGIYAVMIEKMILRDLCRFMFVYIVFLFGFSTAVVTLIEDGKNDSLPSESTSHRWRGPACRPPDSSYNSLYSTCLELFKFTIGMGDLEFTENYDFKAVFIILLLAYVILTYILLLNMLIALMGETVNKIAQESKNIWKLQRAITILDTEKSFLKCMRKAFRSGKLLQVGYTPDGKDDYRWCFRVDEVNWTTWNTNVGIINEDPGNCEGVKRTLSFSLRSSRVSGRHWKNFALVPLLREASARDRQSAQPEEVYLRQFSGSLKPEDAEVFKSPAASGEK
Calls of active or inactive are those of the source. The calls are words filed in the database; no cut-off is given here.
Respond using exactly one of the listed classes: active, inactive

compound: O=C(Nc1ccc(-n2nc(C(F)(F)F)cc2C(F)(F)F)cc1)c1ccncc1F
label value: active

compound: CCCC(C)OC(=O)c1cnn(-c2ccc(-n3cc(-c4cccc(C(=O)O)c4)nn3)cc2)c1C(F)(F)F (configuration not stated)
label value: inactive

compound: CCOC(=O)c1cnn(-c2ccc(-c3cn(-c4ccc(Cl)cc4)nn3)cc2)c1C(F)(F)F
label value: inactive

compound: CCOC(=O)c1cnn(-c2ccc(NC(=O)C(Cl)=C(Cl)Cl)cc2)c1C(F)(F)F
label value: inactive

compound: O=C(O)c1ccc(-c2cn(-c3ccc(-n4nc(C(F)(F)F)cc4C(F)(F)F)cc3)nn2)cc1
label value: inactive

compound: CCOC(=O)c1cnn(-c2ccc(-n3cc(-c4cccc(C(=O)O)c4)nn3)cc2)c1C(F)(F)F
label value: active

Now let's try a different one.
query: Lab log entry: CC(C)OC(=O)c1cnn(-c2ccc(-n3cc(-c4cccc(C(=O)O)c4)nn3)cc2)c1C(F)(F)F — outcome as called in the assay?
result: inactive

====

Reported pIC50 values follow for various compounds
target: Short transient receptor potential channel 1 & 3/Stromal interaction molecule 1/Calcium release-activated calcium channel protein 1 (Homo sapiens, UniProt P48995+Q13507+Q13586+Q96D31); experiment: Modulation of TRPC1/TRPC3/STIM1/Orai1 in HEK cells assessed as induction of store-operated calcium entry by measuring residual activity preincubated for 30 mins followed by tBhQ-mediated Ca2+ depletion and Ca2+ re-addition to extracellular solution measured for 600 secs by Fluo-4 AM-based fluorometric assay relative to control
Sequence (Q96D31 whole entry): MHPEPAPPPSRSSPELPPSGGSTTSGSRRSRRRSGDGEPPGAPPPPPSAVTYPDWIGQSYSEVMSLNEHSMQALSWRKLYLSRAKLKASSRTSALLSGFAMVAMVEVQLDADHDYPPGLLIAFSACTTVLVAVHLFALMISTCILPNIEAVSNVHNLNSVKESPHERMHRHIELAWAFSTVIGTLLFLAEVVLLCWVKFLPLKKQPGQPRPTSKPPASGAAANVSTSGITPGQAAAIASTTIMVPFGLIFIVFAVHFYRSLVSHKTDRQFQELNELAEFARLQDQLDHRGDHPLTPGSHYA
Sequence (Q13507 whole entry): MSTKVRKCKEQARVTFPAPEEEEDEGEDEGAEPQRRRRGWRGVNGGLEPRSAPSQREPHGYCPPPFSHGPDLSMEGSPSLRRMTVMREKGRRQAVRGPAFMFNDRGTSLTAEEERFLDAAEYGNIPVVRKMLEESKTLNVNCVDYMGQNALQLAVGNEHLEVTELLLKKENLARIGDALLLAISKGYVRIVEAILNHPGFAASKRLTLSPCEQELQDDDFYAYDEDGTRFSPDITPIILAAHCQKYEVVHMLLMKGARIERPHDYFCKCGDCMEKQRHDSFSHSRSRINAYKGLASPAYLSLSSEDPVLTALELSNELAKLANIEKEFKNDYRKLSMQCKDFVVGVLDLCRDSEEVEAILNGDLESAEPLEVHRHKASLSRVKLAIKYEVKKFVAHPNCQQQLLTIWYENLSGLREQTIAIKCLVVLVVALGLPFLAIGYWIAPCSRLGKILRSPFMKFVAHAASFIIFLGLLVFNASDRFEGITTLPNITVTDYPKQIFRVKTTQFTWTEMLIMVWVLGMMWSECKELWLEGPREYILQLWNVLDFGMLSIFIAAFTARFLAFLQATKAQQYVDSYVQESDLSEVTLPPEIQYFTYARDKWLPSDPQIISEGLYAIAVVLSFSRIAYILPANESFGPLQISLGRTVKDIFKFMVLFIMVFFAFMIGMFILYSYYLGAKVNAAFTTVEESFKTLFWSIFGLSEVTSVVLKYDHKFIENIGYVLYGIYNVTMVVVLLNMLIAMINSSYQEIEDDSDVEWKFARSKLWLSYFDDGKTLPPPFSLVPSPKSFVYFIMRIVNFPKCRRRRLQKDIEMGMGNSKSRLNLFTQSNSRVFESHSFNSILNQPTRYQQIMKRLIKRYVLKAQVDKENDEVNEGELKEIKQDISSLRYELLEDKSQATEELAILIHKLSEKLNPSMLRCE
Sequence (Q13586 whole entry): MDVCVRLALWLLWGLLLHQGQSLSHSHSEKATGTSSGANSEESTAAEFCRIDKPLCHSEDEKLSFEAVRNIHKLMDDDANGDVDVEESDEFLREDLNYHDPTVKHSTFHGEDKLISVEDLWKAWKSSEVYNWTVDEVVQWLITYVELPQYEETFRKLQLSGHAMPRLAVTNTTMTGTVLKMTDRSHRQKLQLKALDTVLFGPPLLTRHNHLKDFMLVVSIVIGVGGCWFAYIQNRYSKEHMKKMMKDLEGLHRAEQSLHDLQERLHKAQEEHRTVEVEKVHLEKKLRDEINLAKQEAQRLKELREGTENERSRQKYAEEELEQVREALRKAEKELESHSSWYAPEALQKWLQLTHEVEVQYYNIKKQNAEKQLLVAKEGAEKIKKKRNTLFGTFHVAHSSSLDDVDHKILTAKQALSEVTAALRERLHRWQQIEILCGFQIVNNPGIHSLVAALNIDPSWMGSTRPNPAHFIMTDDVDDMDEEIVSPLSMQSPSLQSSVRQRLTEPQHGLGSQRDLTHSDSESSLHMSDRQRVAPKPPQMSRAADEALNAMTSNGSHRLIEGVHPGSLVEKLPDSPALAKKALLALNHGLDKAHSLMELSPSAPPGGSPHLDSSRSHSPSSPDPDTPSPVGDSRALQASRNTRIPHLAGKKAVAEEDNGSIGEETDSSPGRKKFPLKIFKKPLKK
Sequence (P48995 whole entry): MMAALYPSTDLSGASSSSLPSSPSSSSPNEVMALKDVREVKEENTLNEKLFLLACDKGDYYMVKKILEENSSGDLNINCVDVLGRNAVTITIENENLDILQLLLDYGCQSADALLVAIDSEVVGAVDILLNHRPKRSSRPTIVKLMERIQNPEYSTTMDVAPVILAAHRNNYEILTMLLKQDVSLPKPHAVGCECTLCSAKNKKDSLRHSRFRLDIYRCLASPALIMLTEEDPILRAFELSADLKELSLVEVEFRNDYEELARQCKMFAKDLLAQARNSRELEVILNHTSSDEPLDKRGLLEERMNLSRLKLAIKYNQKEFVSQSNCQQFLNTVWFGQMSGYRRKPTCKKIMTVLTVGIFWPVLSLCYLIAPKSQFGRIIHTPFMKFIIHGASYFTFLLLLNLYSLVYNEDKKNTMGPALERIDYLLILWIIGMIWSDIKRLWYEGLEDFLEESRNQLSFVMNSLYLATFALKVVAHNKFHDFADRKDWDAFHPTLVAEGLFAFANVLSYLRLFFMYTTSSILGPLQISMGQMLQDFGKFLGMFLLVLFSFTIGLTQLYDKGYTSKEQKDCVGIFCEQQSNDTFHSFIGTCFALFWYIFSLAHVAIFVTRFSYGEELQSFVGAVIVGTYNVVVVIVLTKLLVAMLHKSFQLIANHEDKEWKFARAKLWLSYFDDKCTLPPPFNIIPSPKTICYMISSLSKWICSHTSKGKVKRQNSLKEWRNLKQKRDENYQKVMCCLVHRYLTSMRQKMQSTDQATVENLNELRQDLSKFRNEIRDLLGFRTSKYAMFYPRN
// scale note: pIC50 = -log10(conc_M); give the bare number

compound: CCOC(=O)c1cnn(-c2ccc(-n3cc(-c4cccc(C(=O)O)c4)nn3)cc2)c1C(F)(F)F
assay endpoint: pIC50
assay value: 6.22

compound: O=C(Nc1ccc(-n2nc(C(F)(F)F)cc2C(F)(F)F)cc1)c1ccncc1F
assay endpoint: pIC50
assay value: 6.52

compound: CC(C)OC(=O)c1cnn(-c2ccc(-n3cc(-c4cccc(C(=O)O)c4)nn3)cc2)c1C(F)(F)F
assay endpoint: pIC50
assay value: 5.51

We next turn to a different compound, shown below.
query: What value of measured pIC50 is listed for CCCC(C)OC(=O)c1cnn(-c2ccc(-n3cc(-c4cccc(C(=O)O)c4)nn3)cc2)c1C(F)(F)F (centres undefined) ?
result: 5.36

====

Reported Activity values follow for various molecules
molecular target: Short transient receptor potential channel 1 & 3/Stromal interaction molecule 1/Calcium release-activated calcium channel protein 1 (Homo sapiens) (UniProt Q96D31+Q13507+Q13586+P48995); test: Modulation of TRPC1/TRPC3/STIM1/Orai1 in HEK cells assessed as induction of store-operated calcium entry by measuring residual activity at 10 uM preincubated for 30 mins followed by tBhQ-mediated Ca2+ depletion and Ca2+ re-addition to extracellular solution measured for 600 secs by Fluo-4 AM-based fluorometric assay relative to control; assay type: cell-based
Sequence (P48995 whole entry partner): as the sequence (P48995 whole entry) above
Sequence (Q13507 whole entry partner): as the sequence (Q13507 whole entry) above
Sequence (Q13586 23-685 partner limits assumed): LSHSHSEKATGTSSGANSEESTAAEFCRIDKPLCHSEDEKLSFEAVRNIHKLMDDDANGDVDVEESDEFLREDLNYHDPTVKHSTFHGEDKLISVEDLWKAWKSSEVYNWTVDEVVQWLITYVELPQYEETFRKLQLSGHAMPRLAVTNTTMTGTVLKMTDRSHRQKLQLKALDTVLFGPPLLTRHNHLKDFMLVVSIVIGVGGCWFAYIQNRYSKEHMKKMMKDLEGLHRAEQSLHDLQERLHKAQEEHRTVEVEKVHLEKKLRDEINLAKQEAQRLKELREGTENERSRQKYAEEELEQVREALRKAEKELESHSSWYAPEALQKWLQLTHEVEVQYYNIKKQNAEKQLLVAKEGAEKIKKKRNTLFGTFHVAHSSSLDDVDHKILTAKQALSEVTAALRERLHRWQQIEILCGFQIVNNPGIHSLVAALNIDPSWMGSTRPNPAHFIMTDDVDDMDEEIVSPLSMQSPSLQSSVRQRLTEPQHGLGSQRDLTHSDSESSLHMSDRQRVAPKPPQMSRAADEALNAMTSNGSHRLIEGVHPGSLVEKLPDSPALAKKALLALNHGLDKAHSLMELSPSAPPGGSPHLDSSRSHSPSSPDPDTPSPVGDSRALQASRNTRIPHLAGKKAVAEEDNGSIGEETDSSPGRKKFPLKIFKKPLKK
Sequence (Q96D31 whole entry): as the sequence (Q96D31 whole entry) above

Completed entries (count: 4):
smiles entry: CC(C)CCOC(=O)c1cnn(-c2ccc(-n3cc(-c4cccc(C(=O)O)c4)nn3)cc2)c1C(F)(F)F
Activity: > 90%

smiles entry: CCOC(=O)c1cnn(-c2ccc(-n3cc(-c4cccc(C(=O)NO)c4)nn3)cc2)c1C(F)(F)F
Activity: 6.4%

smiles entry: O=C(O)c1cccc(-c2cn(-c3ccc(-n4ncc(C(=O)O)c4C(F)(F)F)cc3)nn2)c1
Activity: > 90%

smiles entry: CCOC(=O)c1cnn(-c2ccc(-c3cn(-c4cccc(N)c4)nn3)cc2)c1C(F)(F)F
Activity: 73.2%

query: What value of measured Activity is listed for CCOC(=O)c1cnn(-c2ccc(-n3cc(-c4cccc(C(=O)NS(C)(=O)=O)c4)nn3)cc2)c1C(F)(F)F ?
result: > 90%
